assay: Solubility in water; type: physicochemical; details: Table 7, PEGylated and sarcosine/alanine substitution peptides
Square brackets hold non-standard residues; d marks the D form. Peptide text beside a SMILES is read from it. Sar = CNCC(=O)O

Molecule | Solubility in water
CC[C@H](C)[C@H](N)C(=O)N[C@@H](C)C(=O)N[C@@H](CC(C)C)C(=O)N[C@H](C(=O)N[C@@H](CC(C)C)C(=O)N(C)CC(=O)N1CCC[C@H]1C(=O)N[C@H](C(=O)N[C@@H](CS)C(=O)N[C@@H](CS)C(=O)N[C@@H](CCC(N)=O)C(=O)N[C@@H](CCC(=O)O)C(=O)N[C@@H](CCCNC(=N)N)C(=O)N[C@@H](C)C(=O)N[C@@H](C)C(=O)NCCOCCOCCOCCOCCOCCOCCOCCOCCOCCOCCOCCOCCOCCOCCOCCOCCOCCOCCOCCOCCOCCOCCOCCOCCC(=O)O)[C@@H](C)CC)[C@@H](C)CC | Yes
CC[C@H](C)[C@H](N)C(=O)N[C@@H](C)C(=O)N[C@@H](CC(C)C)C(=O)N[C@H](C(=O)N[C@@H](CC(C)C)C(=O)N(C)CC(=O)N1CCC[C@H]1C(=O)N[C@H](C(=O)N(C)CC(=O)N[C@@H](CS)C(=O)N[C@@H](CCC(N)=O)C(=O)N[C@@H](CCC(=O)O)C(=O)N[C@@H](CCCNC(=N)N)C(=O)N[C@@H](C)C(=O)N[C@@H](C)C(=O)O)[C@@H](C)CC)[C@@H](C)CC [Peptide E6SarC9Sar, IALIL(Sar)PI(Sar)CQERAA] (H-IALIL[Sar]PI[Sar]CQERAA-OH) | Yes

---

system: complement activation in factor B-depleted human sera; assay type: biochemical
Square brackets hold non-standard residues; d marks the D form. Peptide text beside a SMILES is read from it. Sar = CNCC(=O)O
We begin with a simple list: items and their reported Hemolysis (%).

Molecule | Hemolysis (%)
CC[C@H](C)[C@H](N)C(=O)N[C@@H](C)C(=O)N[C@@H](CC(C)C)C(=O)N[C@H](C(=O)N[C@@H](CC(C)C)C(=O)N[C@@H](CCC(=O)O)C(=O)N1CCC[C@H]1C(=O)N[C@H](C(=O)N[C@@H](CS)C(=O)N(C)CC(=O)N[C@@H](CCC(N)=O)C(=O)N[C@@H](CCC(=O)O)C(=O)N[C@@H](CCCNC(=N)N)C(=O)N[C@@H](C)C(=O)N[C@@H](C)C(=O)O)[C@@H](C)CC)[C@@H](C)CC [PA-C10Sar] | 56.18
CC[C@H](C)[C@H](N)C(=O)N[C@@H](C)C(=O)N[C@@H](CC(C)C)C(=O)N[C@H](C(=O)N[C@@H](CC(C)C)C(=O)N[C@@H](CCC(=O)O)C(=O)N(C)CC(=O)N[C@H](C(=O)N[C@@H](CS)C(=O)N[C@@H](CS)C(=O)N(C)CC(=O)N[C@@H](CCC(=O)O)C(=O)N[C@@H](CCCNC(=N)N)C(=O)N[C@@H](C)C(=O)N[C@@H](C)C(=O)O)[C@@H](C)CC)[C@@H](C)CC [Peptide Q11SarP7Sar, IALILE(Sar)ICC(Sar)ERAA] (H-IALILE[Sar]ICC[Sar]ERAA-OH; N-terminus and C-terminus assumed) | 3.22
CC[C@H](C)[C@H](N)C(=O)N[C@@H](C)C(=O)N[C@@H](CC(C)C)C(=O)N[C@H](C(=O)N[C@@H](CC(C)C)C(=O)N[C@@H](CCC(=O)O)C(=O)N(C)CC(=O)N[C@H](C(=O)N(C)CC(=O)N[C@@H](CS)C(=O)N[C@@H](CCC(N)=O)C(=O)N[C@@H](CCC(=O)O)C(=O)N[C@@H](CCCNC(=N)N)C(=O)N[C@@H](C)C(=O)N[C@@H](C)C(=O)O)[C@@H](C)CC)[C@@H](C)CC [PA-P7SarC9Sar, IALILE(Sar)I(Sar)CQERAA] (H-IALILE[Sar]I[Sar]CQERAA-OH) | 82.72
CC[C@H](C)[C@H](N)C(=O)N[C@@H](C)C(=O)N[C@@H](CC(C)C)C(=O)N[C@H](C(=O)N[C@@H](CC(C)C)C(=O)N[C@@H](CCC(=O)O)C(=O)N1CCC[C@H]1C(=O)N[C@H](C(=O)N(C)CC(=O)N[C@@H](CS)C(=O)N[C@@H](CCC(N)=O)C(=O)N[C@@H](CCC(=O)O)C(=O)N(C)CC(=O)N[C@@H](C)C(=O)N[C@@H](C)C(=O)O)[C@@H](C)CC)[C@@H](C)CC [Peptide R13SarC9Sar] (H-IALILEPI[Sar]CQE[Sar]AA-OH) | 84.81
CC[C@H](C)[C@H](NC(=O)[C@H](CC(C)C)NC(=O)[C@H](C)NC(=O)CNC)C(=O)N[C@@H](CC(C)C)C(=O)N[C@@H](CCC(=O)O)C(=O)N1CCC[C@H]1C(=O)N[C@H](C(=O)N[C@@H](CS)C(=O)N[C@@H](CS)C(=O)N[C@@H](CCC(N)=O)C(=O)N[C@@H](CCC(=O)O)C(=O)N[C@@H](CCCNC(=N)N)C(=O)N[C@@H](C)C(=O)N[C@@H](C)C(=O)O)[C@@H](C)CC [PA-I1Sar] | 84.49
